# TARGET_ENTITY: Adenosine receptor A1 (Homo sapiens)
# EXPERIMENTAL_PROTOCOL: Displacement of [3H]CPX from human adenosine A1 receptor expressed in CHO-K1 cells at 50 uM
# Type: cell-based
TEST_READOUT: inhibition (%)

| SMILES_CODE | TARGET_ENTITY | UNIT_OF_MEASUREMENT | inhibition |
| --- | --- | --- | --- |
| CCOC(=O)c1nn(-c2ccc([N+](=O)[O-])cc2)c(=O)c2c(N)scc12 | Adenosine receptor A1 (Homo sapiens) | % | 73.4 |
| CCOC(=O)c1nn(-c2ccc(OC(C)=O)cc2)c(=O)c2c(N)scc12 | Adenosine receptor A1 (Homo sapiens) | % | 48.9 |
| CCOC(=O)c1nn(-c2ccc(OC)cc2)c(=O)c2c(N)scc12 | Adenosine receptor A1 (Homo sapiens) | % | 92.5 |

P = CCOC(=O)c1nn(-c2ccc(I)cc2)c(=O)c2c(N)scc12
Q = Cc1sc(N)c(C(=O)c2cccs2)c1C
R = CCOC(=O)c1nn(-c2ccccc2)c(=O)c2c(N)scc12
Query block: Returns the items ordered by inhibition, from maximum to minimum. # format: label list in the order the request specifies
Result block: P, Q, R
